Can you tell me melting point for the items I'm about to list?

### Prompt # get_value(readout='melting point', item= Ic1ccc(/C=C/c2ccc3[nH]ccc3c2)cc1 [Compound 8, (E)-5-(4-Iodostyryl)-1H-indole] )
### Response 211 to 212 °C

### Prompt Queued: Brc1ccc(/C=C/c2ccc3[nH]ccc3c2)cc1 [Compound 7, (E)-5-(4-Bromostyryl)-1H-indole]
### Response 215 to 216 °C

### Prompt Queued: C(=C\c1ccc2[nH]ccc2c1)/c1ccccc1 [Compound 4, (E)-5-Styryl-1H-indole]
### Response 162 to 163 °C

### Prompt Queued: Ic1ccc(/C=C/c2ccc3ncccc3c2)cc1 [Compound 17, (E)-6-(4-Iodostyryl)quinoline]
### Response 173 to 174 °C
